Listed here: compounds with reported ID50 for Gag-Pol polyprotein (Moloney murine leukemia virus isolate Shinnick) (UniProt P03355).
Numeric only. Scale: µg/mL

Solved entries:
[[record]]
smiles_notation = "N=C(N)c1ccc2oc(C(=O)Nc3ccc(C4=NCCN4)cc3)cc2c1"
obs_value = 10

[[record]]
smiles_notation = "N=C(N)c1ccc(-c2ccc(-c3ccc(C(=N)N)cc3)[nH]2)cc1"
obs_value = 6.5

[[record]]
smiles_notation = "N=C(N)c1ccc2[nH]c(-c3cc4cc(C(=N)N)ccc4o3)cc2c1"
obs_value = 0.9

[[record]]
smiles_notation = "N=C(N)c1ccc(Oc2ccc(-c3cc4ccc(C(=N)N)cc4[nH]3)cc2)cc1"
obs_value = 250


Kindly review the next compound as well.
Consider "C/C(=C\c1cc2cc(C(=N)N)ccc2o1)c1cc2cc(C(=N)N)ccc2o1" . Its measured ID50 is 14

====

Listed here: molecules with reported ID50 for Gag-Pol polyprotein (Moloney murine leukemia virus isolate Shinnick) (UniProt P03355).
Mention the unit after the number when you answer.

Solved entries:
[[record]]
smiles_notation = "N=C(N)c1ccc(-c2cc3ccc(C(=N)N)cc3[nH]2)cc1"
property = "ID50"
obs_value = "5 µg/mL"

[[record]]
smiles_notation = "N=C(N)c1ccc2c(c1)[nH]c1c3cc(C(=N)N)ccc3sc21"
property = "ID50"
obs_value = "1.2 µg/mL"

[[record]]
smiles_notation = "c1cc(C2=NCCN2)ccc1Oc1ccc(-c2cc3ccc(C4=NCCN4)cc3[nH]2)cc1"
property = "ID50"
obs_value = "1.4 µg/mL"


Kindly review the next molecule as well.
Consider "N=C(N)c1cccc(-c2cc3cc(C(=N)N)ccc3[nH]2)c1" . Its measured ID50 is 4 µg/mL

====

- experimental.target: Gag-Pol polyprotein (Moloney murine leukemia virus isolate Shinnick) (UniProt P03355)
Each entry falls into one class according to its ID50; the ranges are lower level: < 3 µg/mL; middle level: ≥ 3 µg/mL and < 8 µg/mL; upper level: ≥ 8 µg/mL

[[record]]
smiles_notation = "N=C(N)c1ccc(N/N=N/c2ccc(-c3cc4cc(C(=N)N)ccc4o3)cc2)cc1"
experimental_target = "Gag-Pol polyprotein (Moloney murine leukemia virus isolate Shinnick) (UniProt P03355)"
class_name = "lower level"


Q: Dear colleague, I would appreciate it if you could identify the bin for "N=C(N)c1ccc2oc(-c3c[nH]c(-c4cc5cc(C(=N)N)ccc5o4)n3)cc2c1" and reply at your convenience.
A: lower level

Q: Dear colleague, I would appreciate it if you could identify the bin for "N=C(N)c1ccc(-c2cc3ccc(C(=N)N)cc3s2)cc1" and reply at your convenience.
A: middle level

====

Listed here: compounds with reported ID50 for Gag-Pol polyprotein (Moloney murine leukemia virus isolate Shinnick) (UniProt P03355).
Numeric only. Scale: µg/mL

[[record]]
smiles_notation = "C(=C\\c1cc2ccc(C3=NCCN3)cc2[nH]1)/c1ccc(Oc2ccc(C3=NCCN3)cc2)cc1"
property = "ID50"
readout_unit = "µg/mL"
obs_value = 1.6

[[record]]
smiles_notation = "N=C(N)c1ccc(Oc2ccc(/C=C/c3cc4cc(C(=N)N)ccc4o3)cc2)cc1"
property = "ID50"
readout_unit = "µg/mL"
obs_value = 14

[[record]]
smiles_notation = "N=C(N)c1ccc2oc(/C=C/c3cc4cc(C(=N)N)ccc4s3)cc2c1"
property = "ID50"
readout_unit = "µg/mL"
obs_value = 4

[[record]]
smiles_notation = "C(=C\\c1cc2cc(C3=NCCN3)ccc2o1)/c1ccc(Oc2ccc(C3=NCCN3)cc2)cc1"
property = "ID50"
readout_unit = "µg/mL"
obs_value = 9


Kindly review the next compound as well.
// assay Gag-Pol polyprotein (Moloney murine leukemia virus isolate Shinnick) (UniProt P03355), entry "N=C(N)c1cccc(-c2cc3cc(C(=N)N)ccc3s2)c1" , ID50 value = 6

Values from ChEMBL document CHEMBL1121476
